Molecular target: Neu5Ac(a2-8)Neu5Ac(a2-8)Neu5Ac(a2-3)Gal(b1-4)Glc
Assay: glycan array binding signal (z-score within array); higher = stronger binding
Settings: glycan notation: IUPAC condensed, linker removed
About 410 targets per protein were measured; listed, in parts, are those with the strongest signals and a random draw of the rest.
property label: glycan array binding signal (z-score)

Reported glycan array binding signal (z-score) for Gal 7 (Homo sapiens) (protein) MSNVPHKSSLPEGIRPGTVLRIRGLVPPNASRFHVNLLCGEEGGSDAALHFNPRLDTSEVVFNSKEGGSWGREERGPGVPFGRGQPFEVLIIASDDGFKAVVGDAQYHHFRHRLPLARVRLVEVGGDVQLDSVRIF was -0.015

Entry rCnSL-proA (Clitocybe nebularis) (protein) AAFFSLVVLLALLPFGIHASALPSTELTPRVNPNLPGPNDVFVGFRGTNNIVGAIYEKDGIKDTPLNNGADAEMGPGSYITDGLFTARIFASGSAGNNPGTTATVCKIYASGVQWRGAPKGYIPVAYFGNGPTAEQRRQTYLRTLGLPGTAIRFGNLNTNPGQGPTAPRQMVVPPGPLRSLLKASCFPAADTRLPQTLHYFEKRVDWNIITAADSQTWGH — recorded glycan array binding signal (z-score) = -0.436

Lab note: Surfactant Protein D (rat); Neck + Carbohydrate Recognition Domain (NCRD) (Rattus norvegicus) (protein) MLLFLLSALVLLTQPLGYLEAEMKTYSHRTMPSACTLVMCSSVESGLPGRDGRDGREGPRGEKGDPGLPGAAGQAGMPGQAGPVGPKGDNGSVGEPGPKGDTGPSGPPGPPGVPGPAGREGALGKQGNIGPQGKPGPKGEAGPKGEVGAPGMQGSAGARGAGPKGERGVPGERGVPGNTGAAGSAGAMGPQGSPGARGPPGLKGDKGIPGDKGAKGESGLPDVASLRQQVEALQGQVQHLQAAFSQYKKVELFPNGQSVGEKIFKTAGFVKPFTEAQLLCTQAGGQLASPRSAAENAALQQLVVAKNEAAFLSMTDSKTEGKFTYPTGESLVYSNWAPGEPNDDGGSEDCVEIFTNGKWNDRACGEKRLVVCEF gave glycan array binding signal (z-score) of -0.048

The binder listed as PP2A1 (Arabidopsis thaliana) (protein) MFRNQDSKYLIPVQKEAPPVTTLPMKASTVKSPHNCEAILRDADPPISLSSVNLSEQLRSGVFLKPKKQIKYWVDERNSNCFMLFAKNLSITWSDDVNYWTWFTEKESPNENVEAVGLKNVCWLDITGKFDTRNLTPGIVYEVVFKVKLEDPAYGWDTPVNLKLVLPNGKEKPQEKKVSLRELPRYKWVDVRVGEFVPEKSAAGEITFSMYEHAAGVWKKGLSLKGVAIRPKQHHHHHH has a reported glycan array binding signal (z-score) of 0.006

Memo: OS9-MRH (Homo sapiens), Q13438 (protein) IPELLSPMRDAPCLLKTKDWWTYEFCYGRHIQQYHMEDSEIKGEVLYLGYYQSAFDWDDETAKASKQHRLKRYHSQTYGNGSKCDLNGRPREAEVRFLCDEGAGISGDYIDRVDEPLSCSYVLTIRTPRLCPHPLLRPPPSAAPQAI , reported glycan array binding signal (z-score): 0.1

Values from the supplement of paper PMC8728848
